assayProcedure: qHTS assay for small molecule agonists of the antioxidant response element (ARE) signaling pathway (AID 651741)
measurementSetup: HepG2 ARE-bla reporter, beta-lactamase FRET ratio, 16 h; series mostly up to 96 µM
Results filed as inconclusive are left out. Active and inactive are the calls of the source. Calls follow the shape of the dose curve; as a rule, active = well fitted activation curve with a large enough effect in the signal ratio; inconclusive = small, poorly fitted or top-dose-only effect, or effect the other way, or a change in a side signal; inactive = flat fitted curve, though single readings scatter; the % refers to the signal ratio.
Outcome codes: true for active, false for inactive

compound	classification
CCCOC(=O)c1ccccc1C(=O)OCCC	false
CCOP(=S)(OCC)SCSC(C)(C)C	false
CNC(=O)CSP(=S)(OC)OC	false
Cc1ccc2ccccc2c1	false
Cc1ccc([N+](=O)[O-])cc1C	false
ClC(Cl)(Cl)c1ccccc1	false
Cc1ccccc1N	false
ClC(Cl)=C(Cl)C(Cl)=C(Cl)Cl	false
CC(O)CCl (centres undefined)	true
Cc1ccc(O)c(C)c1	true
CNC(=O)N(C)c1nnc(C(C)(C)C)s1	false
O=NN(CCO)CCO	false
BrCCBr	false
O=C(Cl)C(Cl)(Cl)Cl	false
O=C1C(Cl)=C(Cl)C(=O)C(Cl)=C1Cl	true
CC(C)(OO)c1ccccc1	false
COc1nc(NC(C)C)nc(NC(C)C)n1	false
OCC1CO1 (centres undefined)	false
O=S1OCC2C(CO1)C1(Cl)C(Cl)=C(Cl)C2(Cl)C1(Cl)Cl (centres undefined)	true
COP(N)(=O)SC (centres undefined)	false
[O-][Br+2]([O-])O	false
ClC1=C(Cl)C2(Cl)C3C4C=CC(C4)C3C1(Cl)C2(Cl)Cl (centres undefined)	true
S=C=Nc1cccc2ccccc12	true
c1ccc2c(c1)CCCC2	false
O=C(O)COc1ccc(Cl)cc1Cl	true
Clc1ccc2ccccc2c1	false
Clc1nc(Cl)nc(Cl)n1	false
C=CC1CC=CCC1 (centres undefined)	false
Clc1cccc(C(Cl)(Cl)Cl)n1	false
COc1cc(CNC(=O)CCCC/C=C/C(C)C)ccc1O	true
Cc1cccc([N+](=O)[O-])c1	false
CCN(CC)c1ccccc1	false
CCS(=O)CCSP(=O)(OC)OC (centres undefined)	false
CC(C)(C)OO	false
CCCSC(=O)Cl	false
CC(C)N1C(=O)c2ccccc2NS1(=O)=O	false
CC(C)OC(=O)Nc1cccc(Cl)c1	false
C=CC(C)=O	false
COC1=CC(=O)O[C@@H](/C=C/c2ccc3c(c2)OCO3)C1	true
